System: MCF10A
MEASUREMENT PROTOCOL: percent viability (nuclei count relative to siNT); higher = more viable cells
CONDITION DETAILS: 20 nM; 72 h
Class definitions on percent viability: I (below 30%), II (30% to below 60%), III (60% or more)

Just checking, what class would you give UCAGCUACUACCUCUAUUAGG [hsa-miR-5690] here? III

Just checking, what class would you give UGGAUGUGGAAGGAGUUAUCU [hsa-miR-4764-5p] here? I

Just checking, what class would you give CCCGGACAGGCGUUCGUGCGACGU [hsa-miR-3687] here? III

Just checking, what class would you give GAAAGUGCUUCCUUUUAGAGGC [hsa-miR-526b-3p] here? III

Just checking, what class would you give UUGAACUGUUAAGAACCACUGGA [hsa-miR-203b-3p] here? II

Just checking, what class would you give UGAGGCUAAUGCACUACUUCAC [hsa-miR-3975] here? I

Just checking, what class would you give GCCCAAAGGUGAAUUUUUUGGG [hsa-miR-186-3p] here? III

Just checking, what class would you give UUGAGGAAAAGAUGGUCUUAUU [hsa-miR-3915] here? II

Just checking, what class would you give UCCCCUCCACUUUCCUCCUAG [hsa-miR-6887-3p] here? II

Just checking, what class would you give CCGCUCUUCCCCUGACCCCAG [hsa-miR-6812-3p] here? III

Just checking, what class would you give CGGGGUGGGUGAGGUCGGGC [hsa-miR-4651] here? II

Just checking, what class would you give AGCUACAGUUACUUUUGCACCA [hsa-miR-548v] here? III

Just checking, what class would you give UCUGGCUGUGCUGUAAUGCAG [hsa-miR-6504-5p] here? II

Just checking, what class would you give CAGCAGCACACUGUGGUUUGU [hsa-miR-497-5p] here? I

Just checking, what class would you give UGAGGGACCCAGGACAGGAGA [hsa-miR-6875-5p] here? I

Just checking, what class would you give AUCAGGGCUUGUGGAAUGGGAAG [hsa-miR-3127-5p] here? I

Just checking, what class would you give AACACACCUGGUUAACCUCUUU [hsa-miR-329] here? II

Just checking, what class would you give ACUGCAUUAUGAGCACUUAAAG [hsa-miR-20a-3p] here? III

Just checking, what class would you give CAAACCCCUGUCUACCCGCAG [hsa-miR-6771-3p] here? II

Just checking, what class would you give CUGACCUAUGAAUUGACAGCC [hsa-miR-192-5p] here? I

---

Test system: MCF10A
MEASUREMENT PROTOCOL: percent viability (nuclei count relative to siNT); higher = more viable cells
CONDITION DETAILS: 20 nM; 72 h
VALUE TYPE: percent viability

Report percent viability for CAUGCUAGGAUAGAAAGAAUGG [hsa-miR-3146] please. 30.5%

Report percent viability for GUAAGCAGGGGCUCUGGGUGA [hsa-miR-6792-5p] please. 30.2%

Report percent viability for AGGUUGUCUGUGAUGAGUUCG [hsa-miR-410-5p] please. 39.7%

Report percent viability for UCAUUUAUCUGUUGGGAAGCUA [hsa-miR-4729] please. 53.1%

Report percent viability for UGCCCUUAAAGGUGAACCCAGU [hsa-miR-938] please. 57.4%

Report percent viability for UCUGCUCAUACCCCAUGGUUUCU [hsa-miR-767-3p] please. 129%

---

Tested on: MCF10A
MEASUREMENT PROTOCOL: 5+ nucleoli phenotype percent effect (relative to siNT 0% and siKIF11 100%); higher = more cells with five or more nucleoli
CONDITION DETAILS: 20 nM; 72 h
Task for the reader: assign each of the following sequences its reported 5+ nucleoli phenotype percent effect.
The reply should be a number in %, with the unit left off.

Report 5+ nucleoli phenotype percent effect for CCGUCGCCGCCACCCGAGCCG [hsa-miR-1181] please. 96.7

Report 5+ nucleoli phenotype percent effect for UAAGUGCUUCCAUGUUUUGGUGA [hsa-miR-302a-3p] please. 72.3

Report 5+ nucleoli phenotype percent effect for CAGUGCAAGUGUAGAUGCCGA [hsa-miR-3666] please. 66.7

Report 5+ nucleoli phenotype percent effect for GUGGGUUGGGGCGGGCUCUG [hsa-miR-3940-5p] please. -4.07

Report 5+ nucleoli phenotype percent effect for AUAAGACGAACAAAAGGUUUGU [hsa-miR-208b] please. 3.95

Report 5+ nucleoli phenotype percent effect for AAGUCCUGCUUCUGUUGCAG [hsa-miR-6838-3p] please. -28.6

Report 5+ nucleoli phenotype percent effect for CCUAGACACCUCCAGUUC [hsa-miR-4305] please. -1.06

Report 5+ nucleoli phenotype percent effect for CUGGGAGAAGGCUGUUUACUCU [hsa-miR-30c-2-3p] please. -29.4

Report 5+ nucleoli phenotype percent effect for UUCCAGCCCUGGUAGGCGCCGCG [hsa-miR-6720-5p] please. -23.2

Report 5+ nucleoli phenotype percent effect for UGCCCUGCCUGUUUUCUCCUUU [hsa-miR-3173-5p] please. 35.2

Report 5+ nucleoli phenotype percent effect for UAAAGAGCCCUGUGGAGACA [hsa-miR-1276] please. -20.8

Report 5+ nucleoli phenotype percent effect for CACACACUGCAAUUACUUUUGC [hsa-miR-603] please. 19.5

Report 5+ nucleoli phenotype percent effect for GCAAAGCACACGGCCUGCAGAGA [hsa-miR-330-3p] please. 16.5

Report 5+ nucleoli phenotype percent effect for AUCCUAGUCACGGCACCA [hsa-miR-7975] please. -29.1

Report 5+ nucleoli phenotype percent effect for AGCGGUGCUCCUGCGGGCCGA [hsa-miR-4746-3p] please. -33

Report 5+ nucleoli phenotype percent effect for AGCUGUACCUGAAACCAAGCA [hsa-miR-4718] please. -2.07

Report 5+ nucleoli phenotype percent effect for UUUUCAACUCUAAUGGGAGAGA [hsa-miR-1305] please. -6.71

Report 5+ nucleoli phenotype percent effect for AUGGGUGAAUUUGUAGAAGGAU [hsa-miR-1262] please. -20.4

Report 5+ nucleoli phenotype percent effect for UGGGCGAGGGGUGGGCUCUCAGAG [hsa-miR-4649-5p] please. 19.2

Report 5+ nucleoli phenotype percent effect for CCCUGAGACCCUAACCUUAA [hsa-miR-4324] please. 38.6

Report 5+ nucleoli phenotype percent effect for CAGGGCUCAGGGAUUGGAUGGAG [hsa-miR-5088] please. 20.4

Report 5+ nucleoli phenotype percent effect for AAAAGUAUUUGCGGGUUUUGUC [hsa-miR-548l] please. 30

Report 5+ nucleoli phenotype percent effect for CGCGGGCGCUCCUGGCCGCCGCC [hsa-miR-4767] please. 26.9

Report 5+ nucleoli phenotype percent effect for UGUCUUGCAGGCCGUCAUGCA [hsa-miR-431-5p] please. -40.8

Report 5+ nucleoli phenotype percent effect for GGGGAAAGCGAGUAGGGACAUUU [hsa-miR-3153] please. 13.5

Report 5+ nucleoli phenotype percent effect for UGGGCUCAGGGUACAAAGGUU [hsa-miR-4437] please. -5.83

Report 5+ nucleoli phenotype percent effect for GUGGUUAUCCCUGUCCUGUUCG [hsa-miR-487b-5p] please. 17.4

Report 5+ nucleoli phenotype percent effect for UUGAAAGGCUAUUUCUUGGUC [hsa-miR-488-3p] please. -44.7

Report 5+ nucleoli phenotype percent effect for GCUGACUCCUAGUCCAGGGCUC [hsa-miR-345-5p] please. 31.9

Report 5+ nucleoli phenotype percent effect for GAAGUUGCCCAUGUUAUUUUCG [hsa-miR-495-5p] please. -1.1

Report 5+ nucleoli phenotype percent effect for UGGGAACGGGUUCCGGCAGACGCUG [hsa-miR-1292-5p] please. -16.7

Report 5+ nucleoli phenotype percent effect for AUCCAGUUCUCUGAGGGGGCU [hsa-miR-5195-3p] please. 2.52

Report 5+ nucleoli phenotype percent effect for UUGGCCACCACACCUACCCCUU [hsa-miR-4701-5p] please. 19.1

Report 5+ nucleoli phenotype percent effect for UGGGGCUCAGCGAGUUU [hsa-miR-4283] please. -10.7

Report 5+ nucleoli phenotype percent effect for ACAGCAGGCACAGACAGGCAGU [hsa-miR-214-3p] please. -1.88

Report 5+ nucleoli phenotype percent effect for AAAGACCGUGACUACUUUUGCA [hsa-miR-548ao-3p] please. -18.1

Report 5+ nucleoli phenotype percent effect for UUGCUCACUGUUCUUCCCUAG [hsa-miR-1178-3p] please. -31.4

Report 5+ nucleoli phenotype percent effect for AACAUUCAUUGCUGUCGGUGGGU [hsa-miR-181b-5p] please. 10.9

Report 5+ nucleoli phenotype percent effect for CUCUUGAGGGAAGCACUUUCUGU [hsa-miR-526b-5p] please. -54.5

Report 5+ nucleoli phenotype percent effect for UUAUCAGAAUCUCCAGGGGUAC [hsa-miR-361-5p] please. -4.16

Report 5+ nucleoli phenotype percent effect for GAUGGUUGACCAGAGAGCACAC [hsa-miR-758-5p] please. 60.1

Report 5+ nucleoli phenotype percent effect for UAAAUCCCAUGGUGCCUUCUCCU [hsa-miR-605] please. -52.1

Report 5+ nucleoli phenotype percent effect for UUGGUGAGGACCCCAAGCUCGG [hsa-miR-7855-5p] please. -27.6

Report 5+ nucleoli phenotype percent effect for GGCUGGAGCGAGUGCAGUGGUG [hsa-miR-3135b] please. -9.26

Report 5+ nucleoli phenotype percent effect for CAGGGUCAGCUGAGCAUG [hsa-miR-1178-5p] please. 8.34

Report 5+ nucleoli phenotype percent effect for AGGAGAUCCUGGGUU [hsa-miR-3676-5p] please. -13.3

Report 5+ nucleoli phenotype percent effect for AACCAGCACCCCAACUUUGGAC [hsa-miR-634] please. -57.2

Report 5+ nucleoli phenotype percent effect for ACCUGUCUGUGGAAAGGAGCUA [hsa-miR-4421] please. -6.29

Data provenance: the supplement of paper PMC10899765
